targetOrSystem: Short transient receptor potential channel 6 (Mus musculus)
assayName: TRPC6 blockade by TRPC4 inhibitor hits – cell-based, HEK293, membrane potential dye, duplicate, selectivity assay for TRPC4 inhibitor project, confirmation (AID 434948)
conditionSet: HEK293 TRPC6, membrane potential dye fluorescence, at 10 µM, stimulated with maximal-effect acetylcholine
Active and inactive are the calls of the source.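 The calls were made as follows: active = active in primary screen and both duplicates, each dropping signal beyond three positive-control SD with fluorescence still positive; inactive = the rest.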
Your response should consist of one outcome taken from active, inactive

Illustrative cases are given below, each with its answer.
INSERT INTO results (compound, targetorsystem, assignedlabel) VALUES
  ('CSc1ccc(CN(C)C(C)C(=O)NCc2ccccc2)cc1 (stereo not given)', 'Short transient receptor potential channel 6 (Mus musculus)', 'inactive'),
  ('CCN1CCN(c2ccc(S(=O)(=O)N3CCCCC3)cc2NC(=O)COc2cc(C)ccc2Cl)CC1', 'Short transient receptor potential channel 6 (Mus musculus)', 'inactive'),
  ('CCCn1ncc(CN2CCC(n3nccc3NC(=O)CCc3ccccc3)CC2)c1C', 'Short transient receptor potential channel 6 (Mus musculus)', 'inactive'),
  ('CC(C)(C)C(=O)NCCCc1nc2ccccc2n1CCCOc1ccc(Cl)cc1', 'Short transient receptor potential channel 6 (Mus musculus)', 'inactive'),
  ('COc1cccc(CN2CCNC(=O)C2CC(=O)N(C)CCc2ccccn2)c1OC (stereo not given)', 'Short transient receptor potential channel 6 (Mus musculus)', 'inactive');

For this compound, state the assay outcome: `O=C(NCc1ccccc1)C1=C[C@H](c2ccc(C(F)(F)F)cc2)C[C@H](OCc2ccc(CO)cc2)O1`
inactive

For this compound, state the assay outcome: `Oc1ccc(Nc2nc(N3CCCC3)c3ccccc3n2)cc1`
active

For this compound, state the assay outcome: `Cn1c(=O)c2c(nc(SCCN3CCCCC3)n2Cc2ccccc2)n(C)c1=O`
inactive

For this compound, state the assay outcome: `O=C(Nc1ccncc1)c1ccc(Cl)c(S(=O)(=O)N2CCc3ccccc32)c1`
inactive

For this compound, state the assay outcome: `Cc1ccc2cc(CN(CCN3CCOCC3)C(=O)NCc3ccccc3)c(=O)[nH]c2c1C`
inactive
